The measurements presented in this section are drawn from PubChem BioAssay AID2061108.

system: E. coli NCTC 12923 + PMBN growth inhibition, 100 uM; experiment: microbial growth inhibition plus red cell haemolysis – Idler compounds, first plate, PMBN-permeabilized strains, profiling panel (AID 2061108); conditions: S. aureus ATCC 9144 growth inhibition; measured here: E. coli plus PMBN; at 100 µM; stronger effect = higher value
Recorded inhibition values for a group of compounds are listed next.

- compound: "COC(=O)c1ccc(C2CN(c3ccnc(S(=O)(=O)F)c3)C2)nc1"
  inhibition (%): 11.4
- compound: "COc1ccc(/C=C(\\C#N)S(=O)(=O)c2ccccc2)cc1OC"
  inhibition (%): 3.58
- compound: "CCn1c(SCC(=O)N(C)c2ccccc2)nnc1-c1cn(C)nc1OC"
  inhibition (%): -23.5
- compound: "Cc1ccn2c(=O)nc(SCC(=O)OCc3ccccc3)nc2c1"
  inhibition (%): -29.4
- compound: "COc1cc2nc(NCCCN(C)C)nc(N3CC(N(C)C)C3)c2cc1OC"
  inhibition (%): 2.07
- compound: "Nc1ncnc2cc(-c3cccc(S(N)(=O)=O)c3)sc12"
  inhibition (%): 91.6
- compound: "NC(=O)CSc1nnc(COc2ccccc2)n1-c1ccccc1"
  inhibition (%): 2.8
- compound: "N#Cc1cc(-c2cccc(Cl)c2)no1"
  inhibition (%): 1.71
- compound: "Cc1cc(NC(=O)c2ccc(F)c(C(C)(C)C#N)c2)nn1C"
  inhibition (%): -1.71
- compound: "Cn1nc(C(C)(C)C)cc1NC(=O)Nc1ccc(Cl)cc1"
  inhibition (%): 99.4
- compound: "COc1cc2nc(Nc3cc(C)[nH]n3)nc(N3CC(N(C)C)C3)c2cc1OC"
  inhibition (%): -10.1
- compound: "O=S(=O)(Nc1ccc(Oc2ccccc2)cc1)c1ccc(-c2nn[nH]n2)cc1"
  inhibition (%): 21.7
- compound: "O=c1[nH]c(=O)c2cc(S(=O)(=O)Nc3cc(F)c(NCCN4CCOCC4)c(F)c3)ccc2[nH]1"
  inhibition (%): 0.988
- compound: "O=C(CSc1nc(=O)[nH]c2c1CCC2)c1ccc(Cl)cc1"
  inhibition (%): -20
- compound: "O=S(=O)(NC1(Cc2ccc(Cl)cc2Cl)CCC1)c1ccc(-c2nn[nH]n2)cc1"
  inhibition (%): 22.2
- compound: "Cc1ccc(CN2C(=O)NC3(CCN(C(=O)C(C)Oc4ccccc4)CC3)C2=O)cc1 (centres undefined)"
  inhibition (%): 22.5
- compound: "O=C(N/N=C/C1CCOCC1)c1ccncc1"
  inhibition (%): 1.11
- compound: "COc1cc2nc(N3CCC(N(C)C)C3)nc(N3CCN(C(=O)OC(C)(C)C)CC3)c2cc1OC (centres undefined)"
  inhibition (%): 10.1
- compound: "CC(=O)NCCC(=O)NNC(=O)c1cc(-c2ccccn2)nc2ccccc12"
  inhibition (%): -9.76
- compound: "N#Cc1c(N2C[C@@H](CC(N)=O)[C@H](O)C2)nc2ccccc2c1C(F)(F)F"
  inhibition (%): 11.6
- compound: "CC(Nc1ccc2oc(=O)[nH]c2c1)C(=O)Nc1ccccc1C#N (centres undefined)"
  inhibition (%): -6.79
- compound: "O=c1[nH]c(=O)c2cc(S(=O)(=O)Nc3cc(F)c(N4CCN(c5ccccn5)CC4)c(F)c3)ccc2[nH]1"
  inhibition (%): 9.51
- compound: "COc1ccc(Nc2nc(-c3ccoc3)cs2)c(C)c1"
  inhibition (%): -20.1
- compound: "FC(F)Oc1ccc(-c2nnc3cncc(OCCCC(F)(F)F)n23)cc1"
  inhibition (%): -9.02
- compound: "Cc1cccc(C)c1OCC(O)CSc1ccccn1 (centres undefined)"
  inhibition (%): 59.6
- compound: "O=S(=O)(Nc1ccc(Oc2ccccc2)cc1)c1cccc(C(F)(F)F)c1"
  inhibition (%): 90
- compound: "O=S(=O)(F)c1cccc(NCc2ccc(F)cc2)n1"
  inhibition (%): 0.494
- compound: "O=C(Nc1cccc(C(F)(F)F)c1)C(Cl)C(=O)c1ccccc1 (centres undefined)"
  inhibition (%): 100
- compound: "O=C(Nc1ccc(Oc2ccccc2)cc1)c1ccc(-c2nn[nH]n2)nc1"
  inhibition (%): 10.6
- compound: "O=C(Nc1ccc(Oc2ccccc2)cc1)c1cccc(-c2nn[nH]n2)c1"
  inhibition (%): 5.93
- compound: "O=C(N/N=C/c1ccc2cccc(O)c2n1)c1ccncc1"
  inhibition (%): -1.73
- compound: "Nc1ncc(/C=N/NC(=O)c2ccncc2)cn1"
  inhibition (%): -2.1
- compound: "COc1ccc2c(c1)nc(-c1ccc[nH]1)c1[nH]ccc12"
  inhibition (%): 100
- compound: "Cc1ccc(C)c(N2CCN(C(=O)C3CCN(c4ncnc5c4sc4ncccc45)CC3)CC2)c1"
  inhibition (%): 0.988
- compound: "NC(=O)C1CCN(c2nc(OCc3ccc(F)nc3)nc(N3CCCOCC3)n2)CC1"
  inhibition (%): -2.07
- compound: "COc1ccc2c(c1)nc(-c1c[nH]c3cc(N4CCOCC4)ccc13)c1[nH]ccc12"
  inhibition (%): 98.5
- compound: "CC(C)C(N)C(=O)NS(=O)(=O)c1cccc(-c2cc3ncnc(N)c3s2)c1 (centres undefined)"
  inhibition (%): -17.2
- compound: "N#Cc1ccc(NC2Cc3cccc(O)c3C2)cc1C(F)(F)F (centres undefined)"
  inhibition (%): 100
- compound: "N#Cc1ccc(NC2Cc3cccc(O)c3C2)cc1Cl (centres undefined)"
  inhibition (%): 101
- compound: "O=C(NC1(c2ccc(Br)cc2)COC1)c1ccc(N2CCOCC2)cc1"
  inhibition (%): 4.32
- compound: "Nc1ncnc2cc(-c3cccc(S(=O)(=O)NC(=O)C(N)Cc4ccccc4)c3)sc12 (centres undefined)"
  inhibition (%): -18.8
- compound: "O=C(O)c1cc(-c2ccco2)on1"
  inhibition (%): 3.29
- compound: "NC(=O)C1CCN(c2nc(OCc3ccc(F)nc3)nc(N3CCn4c(nnc4C(F)(F)F)C3)n2)CC1"
  inhibition (%): -3.54
- compound: "CCCOc1cc(S(=O)(=O)n2cccn2)ccc1Br"
  inhibition (%): -8.29
